test system: methicillin-sensitive Staphylococcus aureus (MSSA); assay: MIC, two-fold agar dilution (CLSI), clinical isolates; assay type: cell-based; conditions: strain MSSA 15-6
MEASURED METRIC: Anti-bacterial activity (MIC) (µg/mL)
Answers are plain numbers, in µg/mL.

Examples from the recorded data:
CCCC[C@H](CC(=O)NO)C(=O)N1CC2(CCCC2)C[C@H]1C(=O)Nc1cc(C)on1 | 1
CCCC[C@H](CN(O)C=O)C(=O)N1CCC[C@H]1C(=O)Nc1ccc(F)c[n+]1[O-] [LBM415, reference compound] | 0.5

Query: Look up Anti-bacterial activity (MIC): C[C@H]1COc2c(N3CCN(C)CC3)c(F)cc3c(=O)c(C(=O)O)cn1c23 [levofloxacin, reference compound]
Response: 16

----------
tested on: methicillin-sensitive Staphylococcus epidermidis (MSSE); test: MIC, two-fold agar dilution (CLSI), clinical isolates; type: cell-based; conditions: strain MSSE 15-4
Consider the following compounds; for each one, report its Anti-bacterial activity (MIC).
Give bare numbers, in µg/mL.

CCCC[C@H](CC(=O)NO)C(=O)N1CC2(CCCC2)C[C@H]1C(=O)Nc1cc(C)on1 [Example 80] | 0.25
CCCC[C@H](CC(=O)NO)C(=O)N1CC2(CCCC2)C[C@H]1C(=O)Nc1ncc(C)s1 [Example 79] | 1
CCCC[C@H](CN(O)C=O)C(=O)N1CCC[C@H]1C(=O)Nc1ccc(F)c[n+]1[O-] [LBM415, reference compound] | 0.5

Let's switch to this compound now.
Query: Look up Anti-bacterial activity (MIC): C[C@H]1COc2c(N3CCN(C)CC3)c(F)cc3c(=O)c(C(=O)O)cn1c23 [levofloxacin, reference compound]
Response: 0.5

----------
test system: Escherichia coli (including ESBLs, non-ESBLs); test: MIC, two-fold agar dilution (CLSI), clinical isolates; assay type: cell-based; details: strain ECO− 15-1
MEASURED METRIC: Anti-bacterial activity (MIC) (µg/mL)
Answers are plain numbers, in µg/mL.

C[C@H]1COc2c(N3CCN(C)CC3)c(F)cc3c(=O)c(C(=O)O)cn1c23 [levofloxacin, reference compound] | 0.03

Query: Look up Anti-bacterial activity (MIC): CCCC[C@H](CN(O)C=O)C(=O)N1CCC[C@H]1C(=O)Nc1ccc(F)c[n+]1[O-] [LBM415, reference compound]
Response: 64

----------
system: Escherichia coli (including ESBLs, non-ESBLs); assay: MIC, two-fold agar dilution (CLSI), clinical isolates; type: cell-based; conditions: clinical isolate ECO+ 15-4
MEASURED METRIC: Anti-bacterial activity (MIC), strain ECO+ 15-4 (mg/L)
Numbers only, in mg/L.

CCCC[C@H](CC(=O)NO)C(=O)N1CC2(CC2)C[C@H]1C(=O)Nc1ccc(N2CCOCC2)cc1 | 1
O=C(C[C@@H](CC1CCCC1)C(=O)N1CC2(CC2)C[C@H]1C(=O)Nc1ccc(N2CCOCC2)cc1)NO | 1
CCCC[C@H](CC(=O)NO)C(=O)N1CC2(CC2)C[C@H]1C(=O)Nc1cc(C(C)(C)C)on1 | 1
CCCC[C@H](CC(=O)NO)C(=O)N1CC2(CC2)C[C@H]1C(=O)Nc1ncc(C)s1 | 0.5

// batch mode: one Anti-bacterial activity (MIC), strain ECO+ 15-4 value per listed entry
1. O=C(C[C@@H](CC1CCCC1)C(=O)N1CC2(CC2)C[C@H]1c1nc2ccccc2[nH]1)NO
2. Cc1cnc(NC(=O)[C@@H]2CC3(CC3)CN2C(=O)[C@@H](CC(=O)NO)CC2CCCC2)s1

Response:
1: 16; 2: 16
